Tested on: Trypanosoma brucei brucei
TEST PROTOCOL: Antitrypanosomal activity against diminazene-resistant Trypanosoma brucei brucei deltaTbat1-KO after 48 hrs by alamar blue assay
Type: functional, organism-based
pEC50: −log10 of the molar value.
Note to self: values exactly at 5 are 1. So pEC50 at or above 5 is 1, below is 0.

compound=COc1cc(/C=C/C(=O)CC(=O)/C=C/c2ccc(OCCO)c(OC)c2)ccc1OCCO target_system="Trypanosoma brucei brucei" group=1
compound=O=C(CCc1ccc(O)cc1)CC(=O)CCc1ccc(O)cc1 target_system="Trypanosoma brucei brucei" group=1
compound=COc1cc(/C=C/C(=O)CC(=O)/C=C/c2ccc(O)c(OC)c2)ccc1O target_system="Trypanosoma brucei brucei" group=1
compound="COc1cc(CC/C=C/C(O)CCc2ccc(O)c(OC)c2)ccc1O (centres undefined)" target_system="Trypanosoma brucei brucei" group=0
compound=COc1cc(/C=C/C(=O)CC(=O)/C=C/c2ccc(OC(C)=O)c(OC)c2)ccc1OC(C)=O target_system="Trypanosoma brucei brucei" group=1
compound="O=C(/C=C/CCc1ccc(O)c(O)c1)CCc1ccc(O)c(O)c1 [DEHYDROHIRSUTANONOL]" target_system="Trypanosoma brucei brucei" group=1
compound=C=CCOc1ccc(/C=C/C(=O)CC(=O)/C=C/c2ccc(O)c(OC)c2)cc1OC target_system="Trypanosoma brucei brucei" group=1
compound=COc1cc(CCC(=O)CC(=O)CCc2ccc(O)c(O)c2)ccc1O target_system="Trypanosoma brucei brucei" group=1
compound=COc1cc(/C=C/C(=O)CC(=O)/C=C/c2ccc(O)c(O)c2)ccc1O target_system="Trypanosoma brucei brucei" group=1
compound="COc1cc(CCC(=O)CC(=O)CCc2ccc(O)cc2)ccc1O [TETRAHYDRODEMETHOXYCURCUMIN]" target_system="Trypanosoma brucei brucei" group=0
compound=CCCOc1ccc(/C=C/C(=O)CC(=O)/C=C/c2ccc(OCCC)c(OC)c2)cc1OC target_system="Trypanosoma brucei brucei" group=1
compound=COc1cc(CC/C=C/C(=O)CCc2ccc(O)c(OC)c2)ccc1O target_system="Trypanosoma brucei brucei" group=1
compound=COc1cc(/C=C/C(=O)CC(=O)/C=C/c2cc(OC)c(O)c([N+](=O)[O-])c2)ccc1O target_system="Trypanosoma brucei brucei" group=0
compound=COc1cc(CCCCC(=O)CCc2ccc(O)c(OC)c2)ccc1O target_system="Trypanosoma brucei brucei" group=0
compound=COc1cc(/C=C/C(=O)CC(=O)/C=C/c2ccc(OCC=C(C)C)cc2)ccc1OCC=C(C)C target_system="Trypanosoma brucei brucei" group=1
compound=COc1ccc(/C=C/C(=O)CC(=O)/C=C/c2ccc(OC)c(OC)c2)cc1OC target_system="Trypanosoma brucei brucei" group=1

====

System: Trypanosoma brucei brucei
TEST PROTOCOL: Antitrypanosomal activity against diminazene-resistant Trypanosoma brucei brucei deltaTbat1-KO after 48 hrs by alamar blue assay
Assay type: functional, organism-based
MEASURE NAME: EC50 (µM)

smiles_str=O=C(/C=C/c1ccc(O)cc1)CC(=O)/C=C/c1ccc(OC(=O)c2ccccc2)cc1 target_system="Trypanosoma brucei brucei" measure_name=EC50 unit=µM readout_value=10
smiles_str=COc1ccc(/C=C/C(=O)CC(=O)/C=C/c2ccc(O)cc2)cc1 target_system="Trypanosoma brucei brucei" measure_name=EC50 unit=µM readout_value=8.8
smiles_str=O=C(/C=C/c1ccc(O)cc1)CC(=O)/C=C/c1ccc(O)cc1 target_system="Trypanosoma brucei brucei" measure_name=EC50 unit=µM readout_value=9.5
